assay: Selectivity index, ratio of EC50 for human HepG2A16 cells to EC50 for chloroquine-resistant Plasmodium falciparum Dd2 infected in human erythrocyte; assay type: toxicity; conditions: read-out: Ratio EC50
QUANTITY: selectivity ratio
Just the number, please, no unit after it.

Example molecules with recorded selectivity ratio:
{"RECORD SMILES": "O=C(c1cccnc1)N1CCC(c2c[nH]c3ccccc23)CC1", "selectivity ratio": 4.33}
{"RECORD SMILES": "Clc1ccc2nccc(N3CCC(CN4CCC(c5c[nH]c6ccccc56)CC4)CC3)c2c1", "selectivity ratio": 4.1}

Ask | Provide measured selectivity ratio value, entry: `c1ccc2c(C3CCN(Cc4ccc(CN5CCC(c6c[nH]c7ccccc67)CC5)cc4)CC3)c[nH]c2c1`
Reply | 2.19

Ask | Provide measured selectivity ratio value, entry: `Clc1ccc2nccc(N3CCC(c4c[nH]c5ccccc45)CC3)c2c1`
Reply | 0.85
